Reference source for all entries: DBAASP

Target or system Xanthomonas arboricola pv. pruni CFBP 5563: recorded MIC listed per item.
reported-metric: MIC

compound	system-tested	test-value
CC(C)C[C@H](NC(=O)[C@H](CCC(N)=O)NC(=O)[C@H](CCCCN)NC(=O)[C@H](CCCN=C(N)N)NC(=O)[C@H](Cc1ccccc1)NC(=O)[C@@H](N)Cc1c[nH]c2ccccc12)C(=O)N[C@@H](CCCCN)C(=O)N[C@@H](Cc1c[nH]c2ccccc12)C(=O)O [WFRKQLKW]	Xanthomonas arboricola pv. pruni CFBP 5563	≥ 50 µM
CSCC[C@H](NC(=O)CNC(=O)[C@H](CCC(N)=O)NC(=O)[C@H](C)NC(=O)[C@H](CCCN=C(N)N)NC(=O)CNC(=O)[C@H](C)NC(=O)[C@@H](NC(=O)[C@@H](N)CO)C(C)C)C(N)=O [SVAGRAQGM]	Xanthomonas arboricola pv. pruni CFBP 5563	≥ 50 µM
CC(C)C[C@H](NC(=O)CNC(=O)[C@H](CC(C)C)NC(=O)[C@H](Cc1ccccc1)NC(=O)[C@@H](NC(=O)[C@@H](N)CCCCN)C(C)C)C(=O)N[C@@H](CCCCN)C(=O)O [KVFLGLK]	Xanthomonas arboricola pv. pruni CFBP 5563	≥ 50 µM
CSCC[C@H](NC(=O)CNC(=O)[C@@H](NC(=O)[C@H](CO)NC(=O)[C@H](Cc1ccccc1)NC(=O)[C@@H](NC(=O)[C@H](Cc1ccccc1)NC(=O)[C@H](Cc1ccc(O)cc1)NC(=O)[C@H](CO)NC(=O)[C@H](CCC(=O)O)NC(=O)[C@@H](N)[C@@H](C)O)C(C)C)C(C)C)C(N)=O [TESYFVFSVGM]	Xanthomonas arboricola pv. pruni CFBP 5563	17.7 µM

###

Reported MIC values, Escherichia coli K88.

sample-smiles	unit-symbol	relation-symbol	MIC
CC[C@H](C)[C@H](NC(=O)[C@H](CCCCN)NC(=O)[C@H](CCCCN)NC(=O)[C@H](CC(C)C)NC(=O)[C@H](CCCN=C(N)N)NC(=O)[C@H](Cc1c[nH]c2ccccc12)NC(=O)[C@H](CCCN=C(N)N)NC(=O)[C@@H](NC(=O)[C@H](CCCCN)NC(=O)[C@H](Cc1c[nH]c2ccccc12)NC(=O)[C@H](CCCN=C(N)N)NC(=O)[C@H](CC(C)C)NC(=O)[C@H](CCCN=C(N)N)NC(=O)[C@H](CCCN=C(N)N)NC(=O)[C@H](Cc1ccccc1)NC(=O)[C@@H](N)CCCN=C(N)N)[C@@H](C)O)C(N)=O	µM	=	4
C[C@H](NC(=O)[C@H](CCCN=C(N)N)NC(=O)[C@H](Cc1c[nH]c2ccccc12)NC(=O)[C@H](CCCN=C(N)N)NC(=O)[C@H](Cc1c[nH]c2ccccc12)NC(=O)[C@H](Cc1c[nH]c2ccccc12)NC(=O)[C@H](Cc1c[nH]c2ccccc12)NC(=O)[C@H](CCCN=C(N)N)NC(=O)[C@H](Cc1c[nH]c2ccccc12)NC(=O)[C@H](CCCN=C(N)N)NC(=O)[C@@H](N)CO)C(N)=O	µM	=	4
CC[C@H](C)[C@H](NC(=O)[C@H](CCCN=C(N)N)NC(=O)[C@H](C)NC(=O)[C@H](C)N)C(=O)N[C@H](C(=O)N[C@@H](CC(C)C)C(=O)N[C@@H](CCCN=C(N)N)C(=O)N[C@@H](CC(=O)O)C(=O)N[C@@H](CCCN=C(N)N)C(=O)N[C@@H](Cc1ccccc1)C(=O)N[C@@H](CCCN=C(N)N)C(N)=O)[C@@H](C)CC	µM	≥	128

###

Tested on: Staphylococcus aureus ATCC 25923
method: ≥ marks a high value that may be exact or a test limit, other limits are often not marked, values filed in µg/mL are converted to µM
Measured MIC values are reported for all entries that follow.
reported-metric: MIC (µM)

sample-smiles	unit-symbol	relation-symbol	test-value
CC[C@H](C)[C@H](NC(=O)[C@H](Cc1cnc[nH]1)NC(=O)[C@H](CO)NC(=O)[C@H](CC(C)C)NC(=O)[C@@H](N)Cc1ccccc1)C(=O)N[C@@H](C)C(=O)NCC(=O)N[C@@H](Cc1ccccc1)C(=O)N[C@@H](CC(C)C)C(=O)N[C@@H](CO)C(=O)N[C@@H](CC(N)=O)C(=O)N[C@@H](CC(C)C)C(=O)N[C@@H](Cc1ccccc1)C(=O)O	µM	=	10
CC[C@H](C)[C@H](N)C(=O)N[C@@H](CC(C)C)C(=O)NCC(=O)N1CCC[C@H]1C(=O)N[C@H](C(=O)N[C@H](C(=O)N[C@@H](CO)C(=O)N[C@H](C(=O)N[C@H](C(=O)NCC(=O)N[C@@H](CC(N)=O)C(=O)N[C@H](C(=O)N[C@@H](CC(C)C)C(=O)NCC(=O)NCC(=O)N[C@@H](CC(C)C)C(=O)N[C@@H](CC(C)C)C(=O)N[C@@H](CCCCN)C(=O)N[C@@H](CC(N)=O)C(=O)N[C@@H](CC(C)C)C(N)=O)C(C)C)[C@@H](C)CC)[C@@H](C)O)[C@@H](C)CC)C(C)C	µM	>	50.2
CC[C@H](C)[C@H](NC(=O)[C@H](CCCN=C(N)N)NC(=O)[C@@H](N)CCCCN)C(=O)N[C@@H](CCSC)C(=O)N[C@@H](CCCCN)C(=O)N[C@@H](CC(C)C)C(=O)N[C@@H](CCCCN)C(=O)N[C@@H](CCSC)C(=O)N[C@@H](CCCN=C(N)N)C(=O)O	µM	>	226
NC(=O)[C@H](Cc1c[nH]c2ccccc12)NC(=O)[C@H](Cc1c[nH]c2ccccc12)NC(=O)[C@H](CCCN=C(N)N)NC(=O)[C@H](CCCN=C(N)N)NC(=O)[C@H](Cc1c[nH]c2ccccc12)NC(=O)[C@H](CCCN=C(N)N)NC(=O)[C@H](CCCN=C(N)N)NC(=O)[C@H](Cc1c[nH]c2ccccc12)NC(=O)[C@H](Cc1c[nH]c2ccccc12)NC(=O)[C@@H](N)CCCN=C(N)N	µM	=	8
CC(C)[C@H](NC(=O)[C@H](CCCN=C(N)N)NC(=O)[C@H](Cc1c[nH]c2ccccc12)NC(=O)[C@H](Cc1c[nH]c2ccccc12)NC(=O)[C@H](Cc1c[nH]c2ccccc12)NC(=O)[C@H](CCCN=C(N)N)NC(=O)[C@H](Cc1c[nH]c2ccccc12)NC(=O)[C@@H](N)CCCN=C(N)N)C(=O)N[C@@H](Cc1ccc(O)cc1)C(=O)O	µM	=	3.3
CC[C@H](C)[C@H](NC(=O)[C@H](CC(C)C)NC(=O)CNC(=O)CNC(=O)[C@H](CC(C)C)NC(=O)[C@@H](N)Cc1ccccc1)C(=O)N[C@@H](CCCCN)C(=O)N1CCC[C@H]1C(=O)N[C@@H](Cc1c[nH]c2ccccc12)C(=O)N[C@@H](Cc1c[nH]c2ccccc12)C(=O)N1CCC[C@H]1C(=O)N[C@@H](Cc1c[nH]c2ccccc12)C(=O)N[C@@H](CCCN=C(N)N)C(=O)N[C@@H](CCCN=C(N)N)C(N)=O	µM	=	17.2
